Each recorded value in this set is attributed to patent US20240132624A1.

Measured target: T1, cyno FcRn/b2M (cyno, UniProt Q8SPV9 24-297; Q8SPW0 21-119, biotinylated)
T1 construct: bought recombinant biotinylated protein (Immunitrack ITF05 or ACRO FCM-C82W5); also called cFcRn; cFcRn/cb2M
T1 sequence (Q8SPV9 24-297 limits assumed, chain 1 of 2): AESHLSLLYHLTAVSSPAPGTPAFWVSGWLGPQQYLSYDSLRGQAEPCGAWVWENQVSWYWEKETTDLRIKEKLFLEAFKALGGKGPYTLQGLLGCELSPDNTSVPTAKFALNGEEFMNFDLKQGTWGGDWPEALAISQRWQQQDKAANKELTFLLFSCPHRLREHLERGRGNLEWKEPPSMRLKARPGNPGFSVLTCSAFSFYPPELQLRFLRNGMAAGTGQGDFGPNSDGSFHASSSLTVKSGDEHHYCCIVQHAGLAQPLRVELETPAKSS
T1 sequence (Q8SPW0 21-119 limits assumed, chain 2 of 2): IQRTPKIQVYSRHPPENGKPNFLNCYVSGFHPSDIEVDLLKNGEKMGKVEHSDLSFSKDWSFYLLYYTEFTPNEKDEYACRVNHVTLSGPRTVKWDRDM
Assay info: SPR off-rate; pH 7.4 vs pH 6.0;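 further: surface plasmon resonance with diluted periplasmic extracts flowed over ligand surfaces, 120 s association and 600–3600 s dissociation at 25 °C, running buffer containing 150 mM NaCl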
Attribute measured: kd ratio pH 7.4/6.0

Binder | Recorded measurement
T0263018B11 A33V (VHH, name in Kabat numbering, FLAG3-His6 tagged) VHH: EVQLVESGGGVVQPGGSLRLSCAASGFTFSSYVMYWVRQAPGKGLEWVSAISSGGGSTDYADSVKGRFTISRDNSKNTLYLQMNSLRPEDTALYYCAADTLYTSLTWYSYWGQGTLVTVSS | 53
T0263018B11 W100cQ (VHH, name in Kabat numbering, FLAG3-His6 tagged) VHH: EVQLVESGGGVVQPGGSLRLSCAASGFTFSSYAMYWVRQAPGKGLEWVSAISSGGGSTDYADSVKGRFTISRDNSKNTLYLQMNSLRPEDTALYYCAADTLYTSLTQYSYWGQGTLVTVSS | 85
